- experimental.context: pH 7.4, PBS
Kindly supply the reported Solubility values for the records listed here.
Report as a plain number; the unit µg/mL is understood.

Request: Which Solubility value is on record for `O=C(CCC(F)(F)F)N1CCC(c2nc(-c3ccccc3)no2)CC1` ?
Response: 40

Request: Please look up its Solubility: O=C(CCC(F)(F)F)N1CCC(c2nc(-c3cccs3)no2)CC1 [Compound 3, reference compound]
Response: 150

Request: Name the recorded Solubility for `O=C(CCCC(F)(F)F)N1CCC(c2nc(-c3nccs3)no2)CC1` .
Response: 410

Request: Return reported Solubility; argument: `COc1ccc2nc(-c3noc(C4CCN(C(=O)CCC(F)(F)F)CC4)n3)sc2c1`
Response: 6

Request: Given `O=C(CCC(F)(F)F)N1CC[C@@H](c2nc(-c3cccs3)no2)C1` , state its recorded Solubility.
Response: 80

Request: Please look up its Solubility: `O=C(CCC(F)(F)F)N1CCC(c2nc(-c3nccs3)no2)CC1`
Response: 300
